The origin of these recorded values is patent US20110092544A1.

Each item that follows carries a reported Test B rating (% disease control).
# System: Puccinia recondite f. sp. tritici
# assayProtocol: Test B: wheat leaf rust, preventive spray on wheat seedlings, visual disease rating
# Type: in vivo
# conditionContext: 200 ppm, 100 = 100% disease control, 0 = no control
# Description: General protocol for preparing test suspensions for Tests A-H: The test compounds were first dissolved in acetone in an amount equal to 3% of the final volume and then suspended at the desired concentration (in ppm) in acetone and purified water (50/50 mix) containing 250 ppm of the surfactant Trem® 014 (polyhydric alcohol esters). […]
Report only the number, with the unit % understood.

Please review the entries below; each comes with its answer.
structureString: COc1cc(OC)cc(-c2c(COc3ccccc3)cnc(C)c2-c2c(F)cc(F)cc2F)c1
Test B rating (% disease control), %: 97

structureString: CNC(=O)c1cnc(C)c(-c2ccccc2)c1-c1cc(OC)cc(OC)c1
Test B rating (% disease control), %: 0

structureString: COc1cc(OC)cc(-c2c(C(C)=O)cnc(C)c2-c2c(F)cc(OC)cc2F)c1
Test B rating (% disease control), %: 100

stdin: Requested field: Test B rating (% disease control). Item: CCc1ncc(C(C)(C)O)c(-c2cc(OC)cc(OC)c2)c1-c1ccccc1
stdout: 28

stdin: Requested field: Test B rating (% disease control). Item: COc1cc(OC)cc(-c2c(-c3ccccc3)c(C)nc(C)c2-c2ccc(F)cc2)c1
stdout: 55

stdin: Requested field: Test B rating (% disease control). Item: CCOC(=O)c1cnc(C)c(-c2ccc(OC)cc2)c1-c1cc(OC)cc(OC)c1
stdout: 59

stdin: Requested field: Test B rating (% disease control). Item: CCOC(=O)c1cnc(C)c(-c2c(F)ccc(F)c2F)c1-c1cc(OC)cc(OC)c1
stdout: 98

stdin: Requested field: Test B rating (% disease control). Item: COc1cc(OC)cc(-c2c(Cn3cccn3)cnc(C)c2-c2c(F)cc(F)cc2F)c1
stdout: 100

---

# System: Rhizoctonia oryzae
# assayProtocol: Test G: turf brown patch, preventive spray on creeping bent grass seedlings, visual disease rating
# Assay type: in vivo
# conditionContext: Waitea circinata, in Agrostis stolonifera, 120 h, 200 ppm, 100 = 100% disease control, 0 = no control
Decision: pest or weed control at 200 ppm beneath 90% gives True; pest or weed control at 200 ppm meeting or exceeding 90% gives False.

Known results for compounds:
compound: COc1cc(OC)cc(-c2c(C(C)=O)cnc(C)c2-c2c(F)cc(F)cc2F)c1 [Compound 40]
groupLabel: True
//
compound: COc1cc(OC)cc(-c2c(C(C)(C)O)cnc(C)c2-c2c(F)cc(F)cc2F)c1 [Compound 44]
groupLabel: True
//
compound: COc1cc(OC)cc(-c2c(-c3ccccc3)cnc(C)c2-c2ccc(F)cc2)c1 [Compound 34]
groupLabel: True
//
compound: C=C(C)c1cnc(C)c(-c2ccc(F)cc2)c1-c1cc(OC)cc(OC)c1 [Compound 16]
groupLabel: False
//
compound: COc1cc(OC)cc(-c2c(C(C)C)cnc(C)c2-c2ccc(F)cc2)c1 [Compound 19]
groupLabel: False

stdin: Quick check: pest or weed control at 200 ppm of COc1cc(OC)cc(-c2c(-c3ccc(F)cc3)c(C)nc(Cl)c2C2CCCC2)c1 [Compound 49] under 90%?
stdout: True

stdin: Quick check: pest or weed control at 200 ppm of COc1cc(OC)cc(-c2c(C3CCCC3)cnc(C)c2-c2ccc(F)cc2)c1 [Compound 50] under 90%?
stdout: False

stdin: Quick check: pest or weed control at 200 ppm of COc1cc(OC)cc(-c2c(-c3ccccc3F)c[n+]([O-])c(C)c2-c2ccc(F)cc2)c1 [Compound 39] under 90%?
stdout: True
